- SYSTEM_UNDER_TEST: malonyl-CoA decarboxylase prepared from rat heart (Rattus norvegicus, UniProt Q920F5)
- Sequence (Q920F5 39-492): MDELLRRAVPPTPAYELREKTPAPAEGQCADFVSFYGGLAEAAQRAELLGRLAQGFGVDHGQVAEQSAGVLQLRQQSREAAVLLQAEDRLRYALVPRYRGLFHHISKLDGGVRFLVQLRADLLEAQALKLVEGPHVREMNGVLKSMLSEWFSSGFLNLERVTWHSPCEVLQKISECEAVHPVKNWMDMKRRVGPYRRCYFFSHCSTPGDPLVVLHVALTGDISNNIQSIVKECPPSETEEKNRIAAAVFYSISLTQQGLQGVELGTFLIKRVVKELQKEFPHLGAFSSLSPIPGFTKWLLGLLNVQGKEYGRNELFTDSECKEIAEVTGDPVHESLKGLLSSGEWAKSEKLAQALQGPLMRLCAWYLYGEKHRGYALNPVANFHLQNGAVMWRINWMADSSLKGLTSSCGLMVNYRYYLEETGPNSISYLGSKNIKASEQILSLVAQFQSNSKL
Measured IC50, listed per entry.
Field: numeric (nM). Do not append units.

Look over these answered cases.
| STRUCTURE_AS_SMILES | REPORTED_PROPERTY | MEASUREMENT |
| --- | --- | --- |
| CCN(CCC#N)C(=O)N(CCCCC(=O)O)c1ccc(C(O)(C(F)(F)F)C(F)(F)F)cc1 | IC50 | 9 |
| O=C(O)CCCCN(C(=O)c1ccncc1)c1ccc(C(O)(C(F)(F)F)C(F)(F)F)cc1 | IC50 | 7 |

### Prompt Name the value of IC50 reported for O=C(N1CCOCC1)N(CCCF)c1ccc(C(O)(C(F)(F)F)C(F)(F)F)cc1 when tested on malonyl-CoA decarboxylase prepared from rat heart (Rattus norvegicus, UniProt Q920F5).
### Response 36
